- ASSAY NOTES: qHTS assay to test for compound auto fluorescence at 535 nm (green) in HepG2 cell free culture (AID 720686)
- MEASUREMENT PARAMETERS: Cell-free medium, green autofluorescence 485/535 nm; series mostly up to 91.3 µM
Active and inactive are the calls of the source. Calls come from the whole dose curve; as a rule, active = well fitted curve in the direction sought with a large enough effect in the repeat runs; inconclusive = weak or mixed curves; inactive = flat fitted curve, though single readings scatter.

- COMPOUND: "CCCCCCCCc1ccc(O)cc1"
  fluorescence, % of fluorescein control: "inactive"
- COMPOUND: "Cc1cc(N=Nc2ccccc2C)ccc1N"
  fluorescence, % of fluorescein control: "inactive"
- COMPOUND: "CN(C)CCc1c[nH]c2cccc(O)c12"
  fluorescence, % of fluorescein control: "inactive"
- COMPOUND: "COC(=O)N(C(=O)N1CO[C@@]2(C(=O)OC)Cc3cc(Cl)ccc3C2=N1)c1ccc(OC(F)(F)F)cc1"
  fluorescence, % of fluorescein control: "inactive"
- COMPOUND: "CCCCOCN(C(=O)CCl)c1c(CC)cccc1CC"
  fluorescence, % of fluorescein control: "inactive"
- COMPOUND: "CN(C)C1CSSSC1"
  fluorescence, % of fluorescein control: "inactive"
- COMPOUND: "C1CCC2CCCCC2C1 (stereo not drawn)"
  fluorescence, % of fluorescein control: "inactive"
- COMPOUND: "CCCN(CCC)c1c([N+](=O)[O-])cc(S(N)(=O)=O)cc1[N+](=O)[O-]"
  fluorescence, % of fluorescein control: "inactive"
- COMPOUND: "CC(=O)[O-].CC(=O)[O-].O.O.[Cd+2]"
  fluorescence, % of fluorescein control: "inactive"
- COMPOUND: "CCCCCCCCCBr"
  fluorescence, % of fluorescein control: "inactive"
- COMPOUND: "Clc1ccc(C(c2ccc(Cl)cc2)C(Cl)(Cl)Cl)cc1"
  fluorescence, % of fluorescein control: "inactive"
- COMPOUND: "Oc1cc(Cl)c(Cl)c(Cl)c1"
  fluorescence, % of fluorescein control: "inactive"
- COMPOUND: "CC(C)(C)C(O)/C(=C\\c1ccc(Cl)cc1Cl)n1cncn1 (stereo not drawn)"
  fluorescence, % of fluorescein control: "inactive"
